These entries and their values trace back to the kinase profiling compilation of Christmann-Franck et al. (2016).

biological target: EPHA8 (human) (UniProt P29322); assay: radiometric filter-binding kinase assay, Kinase HotSpot; conditions: compound 0.5 µM; ATP 10 µM
Sequence (P29322 whole entry, looked up): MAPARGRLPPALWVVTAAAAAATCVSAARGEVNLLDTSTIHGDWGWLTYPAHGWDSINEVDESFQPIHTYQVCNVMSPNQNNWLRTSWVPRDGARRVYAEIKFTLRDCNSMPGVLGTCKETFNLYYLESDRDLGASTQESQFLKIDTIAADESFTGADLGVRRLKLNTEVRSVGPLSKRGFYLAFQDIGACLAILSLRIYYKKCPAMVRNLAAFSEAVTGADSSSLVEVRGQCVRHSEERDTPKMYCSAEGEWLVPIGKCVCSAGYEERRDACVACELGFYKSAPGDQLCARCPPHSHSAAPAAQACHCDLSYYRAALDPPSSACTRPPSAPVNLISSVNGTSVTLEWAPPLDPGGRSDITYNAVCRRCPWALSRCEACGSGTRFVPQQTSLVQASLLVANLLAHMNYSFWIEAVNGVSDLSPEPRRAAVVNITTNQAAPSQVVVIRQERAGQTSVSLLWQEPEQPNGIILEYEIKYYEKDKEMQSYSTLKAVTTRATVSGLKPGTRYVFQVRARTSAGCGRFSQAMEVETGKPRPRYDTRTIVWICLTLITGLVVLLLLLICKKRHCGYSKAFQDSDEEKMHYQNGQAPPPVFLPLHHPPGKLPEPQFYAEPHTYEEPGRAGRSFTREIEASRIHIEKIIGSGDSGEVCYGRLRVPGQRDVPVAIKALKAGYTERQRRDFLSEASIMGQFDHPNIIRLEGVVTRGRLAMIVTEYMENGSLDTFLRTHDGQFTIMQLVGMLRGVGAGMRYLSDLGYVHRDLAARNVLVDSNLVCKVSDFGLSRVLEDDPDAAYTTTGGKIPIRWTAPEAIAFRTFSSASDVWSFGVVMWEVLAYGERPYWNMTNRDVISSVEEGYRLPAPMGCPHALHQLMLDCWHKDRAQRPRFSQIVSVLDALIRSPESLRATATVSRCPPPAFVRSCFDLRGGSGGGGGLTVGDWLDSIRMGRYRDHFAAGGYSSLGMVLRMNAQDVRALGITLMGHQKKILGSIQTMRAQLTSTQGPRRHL
endpointName: residual activity (%)
Number in %, nothing else.

Problem: // query residual activity value for entry `COc1cc(Nc2c(C#N)cnc3cc(OCCCN4CCN(C)CC4)c(OC)cc23)c(Cl)cc1Cl`
Solution: 10.5

Problem: Ok, now `CN(C)c1ccc(/C=C2\C(=O)Nc3ccccc32)cc1`
Solution: 103

Problem: Same lookup for `NC(=O)c1cccc(-c2cc(Nc3ccc(OC(F)(F)F)cc3)ncn2)c1` , please.
Solution: 94.5

Problem: Record: `COc1ccc2c(c1)c(C1=C(c3c[nH]c4ccccc34)C(=O)NC1=O)cn2CCCN(C)C`
Solution: 102

Problem: Now give it for `Cn1c2ccccc2c2c3c(c4c5ccccc5n(CCC#N)c4c21)CNC3=O` too.
Solution: 91.7

----------
Assignment: determine reported residual activity for the given compounds.
biological target: UniProt Q8WTQ7; experiment: radiometric filter-binding kinase assay, Kinase HotSpot; details: compound 0.5 µM; ATP 10 µM
Sequence (Q8WTQ7 whole entry, looked up): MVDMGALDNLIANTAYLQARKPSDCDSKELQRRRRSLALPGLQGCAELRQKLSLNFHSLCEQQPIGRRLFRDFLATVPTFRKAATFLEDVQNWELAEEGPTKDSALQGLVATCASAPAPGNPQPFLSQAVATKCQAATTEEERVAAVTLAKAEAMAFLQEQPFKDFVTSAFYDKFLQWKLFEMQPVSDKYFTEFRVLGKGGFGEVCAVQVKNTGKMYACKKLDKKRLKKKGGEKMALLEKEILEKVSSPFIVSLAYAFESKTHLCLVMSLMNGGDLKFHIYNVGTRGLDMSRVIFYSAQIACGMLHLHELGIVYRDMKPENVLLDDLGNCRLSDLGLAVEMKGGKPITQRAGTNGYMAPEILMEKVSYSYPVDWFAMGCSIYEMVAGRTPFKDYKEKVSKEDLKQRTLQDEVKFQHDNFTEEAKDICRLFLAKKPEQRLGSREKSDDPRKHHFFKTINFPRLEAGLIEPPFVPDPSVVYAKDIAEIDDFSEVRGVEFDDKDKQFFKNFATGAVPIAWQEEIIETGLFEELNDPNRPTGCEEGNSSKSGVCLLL
Quick reminder: number only, in %, skip the unit.

Problem: Given `O=C1C(Cl)=C(N2C(=O)CCC2=O)C(=O)c2ccccc21` , state its recorded residual activity.
Solution: 109

Problem: What about this compound? `CN(C)c1ccc(/C=C2\C(=O)Nc3ccccc32)cc1`
Solution: 100

Problem: What do you have for `COc1ccc2c(c1)/C(=C/c1cnc[nH]1)C(O)=N2` ?
Solution: 99.7

Problem: Thanks! And `Cc1nc(-c2ccccc2)c(-c2ccncc2)o1` ?
Solution: 98.3

Problem: Also `N#C/C(=C\c1ccc(O)c(O)c1)C(=O)NCc1ccccc1` ?
Solution: 103

Problem: Can you check `CO[C@@H]1[C@H](N(C)C(=O)c2ccccc2)C[C@H]2O[C@]1(C)n1c3ccccc3c3c4c(c5c6ccccc6n2c5c31)C(=O)NC4` next?
Solution: 15.5

Problem: Next: `COc1cc(Nc2c(C#N)cnc3cc(OCCCN4CCN(C)CC4)c(OC)cc23)c(Cl)cc1Cl`
Solution: 101

Problem: Same question for `COc1ccc(C(=O)Nc2sc3c(c2C(N)=O)CCCC3)cc1OC` please.
Solution: 95.5

Problem: What do you have for `O=C1Nc2ccc(Br)cc2/C1=C\c1cc2c([nH]1)CCCC2` ?
Solution: 85.2

Problem: // same read-out, input: `N#Cc1c[nH]c2c[nH]/c(=N\Cc3cccnc3)cc2/c1=N\c1ccc(F)c(Cl)c1`
Solution: 95.5

----------
target: UniProtKB Q8NG66; assay: radiometric filter-binding kinase assay, Kinase HotSpot; conditions: compound 0.5 µM; ATP 10 µM
Sequence (Q8NG66 whole entry, looked up): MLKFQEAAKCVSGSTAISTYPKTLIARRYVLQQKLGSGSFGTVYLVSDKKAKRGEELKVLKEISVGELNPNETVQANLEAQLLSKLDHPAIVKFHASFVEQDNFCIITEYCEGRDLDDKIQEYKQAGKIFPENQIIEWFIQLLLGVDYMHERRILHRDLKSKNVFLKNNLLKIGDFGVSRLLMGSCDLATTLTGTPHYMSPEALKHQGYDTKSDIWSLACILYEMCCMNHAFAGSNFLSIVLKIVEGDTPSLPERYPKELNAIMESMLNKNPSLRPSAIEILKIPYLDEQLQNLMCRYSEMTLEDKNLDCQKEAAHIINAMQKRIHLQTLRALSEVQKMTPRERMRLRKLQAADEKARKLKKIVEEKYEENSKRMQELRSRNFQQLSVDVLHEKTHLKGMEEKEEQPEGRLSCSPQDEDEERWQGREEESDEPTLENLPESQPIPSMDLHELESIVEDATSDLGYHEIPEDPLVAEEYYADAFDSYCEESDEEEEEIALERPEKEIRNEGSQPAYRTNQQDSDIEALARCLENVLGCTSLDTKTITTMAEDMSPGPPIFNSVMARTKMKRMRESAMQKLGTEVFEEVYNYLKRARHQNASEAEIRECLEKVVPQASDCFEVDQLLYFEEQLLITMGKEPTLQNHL
endpointName: residual activity (%)
Please state the figure in %; there is no need to write the unit.

Problem: What measured residual activity goes with `O=C1NC(=O)c2c1c1c3ccccc3[nH]c1n1cncc21` ?
Solution: 99

Problem: Follow-up entry: `CS(=O)(=O)CCNCc1ccc(-c2ccc3ncnc(Nc4ccc(OCc5cccc(F)c5)c(Cl)c4)c3c2)o1`
Solution: 107

Problem: What do we get for `COc1ccc(Cl)cc1NC(=O)Nc1cc(C)nc2ccccc12` ?
Solution: 94.6

Problem: Cool, now `NC(=O)c1cccc(-c2cc(Nc3ccc(OC(F)(F)F)cc3)ncn2)c1`
Solution: 98.3

Problem: Further, for `c1ccc2c(-c3ccncc3)c[nH]c2c1` ?
Solution: 76.9

Problem: Follow-up item: `O=C1Nc2ccc(Br)cc2/C1=C\c1cc2c([nH]1)CCCC2`
Solution: 111

Problem: Next compound up: `C[C@@H]1CCN(C(=O)CC#N)C[C@@H]1N(C)c1ncnc2[nH]ccc12`
Solution: 91.7

Problem: Please do the same for `COc1cc2ncnc(Nc3ccc(Oc4ccccc4)cc3)c2cc1OC` as well.
Solution: 74.8

Problem: Entry to check: `CCCCc1c(-c2ccc(OC)cc2)[nH]c2nccnc12`
Solution: 93.6

Problem: Now this one: `N#Cc1c[nH]c2c[nH]/c(=N\Cc3cccnc3)cc2/c1=N\c1ccc(F)c(Cl)c1`
Solution: 87.1

Problem: And `CN(C)c1ccc(/C=C2\C(=O)Nc3ccccc32)cc1` ?
Solution: 96.4
